Test method notes: MELAS cybrid and Rieske KO viability enhancers – cell-based, MELAS cybrids, Rieske KO mouse fibroblasts, CellTiter-Glo, primary screen (AID 1508586);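 further: z relative to plate mean and SD of compound and empty wells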
Experimental parameters: Rieske KO mouse fibroblast survival, low glucose, CellTiter-Glo 72 h
Recorded metric: z-score

Recorded z-score, per entry:
COC(=O)C=CC(=O)OC
0.844
CC(C)CCNc1cc(C(=O)NCCn2ccnc2)cc(S(=O)(=O)Nc2ccccc2)c1
-0.223
O=C(O)c1cccc2c(-c3ccccc3)c(-c3ccccc3)[nH]c12
-0.101
COc1cccc(-c2noc(Cc3ccc4c(c3)OCO4)n2)c1
0.163
Nc1ncn(C2CC(O)C(CO)O2)c(=O)n1 (stereo unspecified)
0.644
COc1ccc2c(c1)CCN(C(=O)Nc1n[nH]c(-c3ccco3)n1)C2
3.56
CC(=O)Nc1ccc(NC(=S)NC(=O)c2ccc(C(C)(C)C)cc2)cc1
0.0517
CC(=O)Nc1c(I)c(C(=O)N[C@H]2C(O)O[C@H](CO)[C@@H](O)[C@@H]2O)c(I)c(N(C)C(C)=O)c1I (stereo partly specified)
0.37

Exercise: Return reported z-score; argument: O=C(O)C1OC(Oc2cc3oc(-c4ccccc4)cc(=O)c3c(O)c2O)C(O)C(O)C1O (stereo unspecified)
Key: 0.279

Exercise: Next: `COc1ccccc1C(=O)N1CCC(n2cc(-c3ccccn3)nn2)CC1`
Key: -0.319

Exercise: Next: `Cc1cc(C)c(S(=O)(=O)n2cc(C)cc2C)c(C)c1`
Key: 0.313

====

Test method notes: viability loss with induced miR-34 in A549 – imaging, A549 dox-inducible miR-34, nuclei and caspase counts, primary screen (AID 1347080)
Experimental parameters: A549 miR-34 inducible, Hoechst nuclei count, 48 h; measured here: relative caspase fold change +Dox/-Dox
Think of 1 as a floor: if fold change stands on it or above, it is 1; beneath it, -1.

Consider the worked cases shown below.
COc1ccc(CCCOc2cc(CCn3ccnc3)ccc2OC)cc1
-1
COc1cc(O)cc(C2CC(=O)c3c(O)cc(OC4OC(CO)C(O)C(O)C4OC4OC(C)C(O)C(O)C4O)cc3O2)c1 (centres undefined)
-1
CCCC(C)NC(=O)c1ccc(Cl)c(Cl)c1 (centres undefined)
-1
Cn1nc(C(C)(C)C)cc1C(=O)NC(Cc1cccc(Cl)c1)C(=O)NCC#N (centres undefined)
-1
O=C(O)c1ccc(-c2ccc(F)cc2)cc1
1
CC[C@H]1OC(=O)[C@H](C)[C@@H](O[C@H]2C[C@@](C)(OC)[C@@H](O)[C@H](C)O2)[C@H](C)[C@@H](O[C@@H]2O[C@H](C)C[C@H](NC)[C@H]2O)[C@](C)(O)C[C@@H](C)CN(C)[C@H](C)[C@@H](O)[C@]1(C)O
1

Exercise: Does the reported fold change for `C=CCNC(=O)c1cccnc1-c1ccc(OC)c2ncccc12` fall at or above the 1 mark?
Key: 1

Exercise: Next: `Cc1cccc(CN2CCN(c3ncnc4sccc34)CC2=O)c1`
Key: 1

====

Test method notes: P. berghei load reduction in hepatocytes – cell-based, HepG2, luciferase luminescence, HepG2 viability, primary screen (AID 624349);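 further: 100% = mean of DMSO negative control wells on the same plate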
Experimental parameters: P. berghei liver stage in HepG2, luciferase luminescence, concentration not given here; measured here: HepG2 viability without parasites
Rule: viability below 80% gives Y, anything at or above gives N.

Exercise: Quick check: does `C=C1CC[C@H](O)C/C1=C/C=C1\CCC[C@]2(C)[C@@H]([C@H](C)CCCC(C)(C)O)CC[C@@H]12` have viability under 80%?
Key: N

Exercise: Next: CC(C)(C)NCC(O)COc1cccc2c1CC(O)C(O)C2 (stereo not drawn)
Key: N

Exercise: Next: `COC(=O)c1ccccc1O`
Key: N

Exercise: Next: `O=C(O)C=Cc1ccc(O)c(O)c1`
Key: N

Exercise: Next: Cc1onc(-c2c(F)cccc2Cl)c1C(=O)N[C@@H]1C(=O)N2C(C(=O)O)C(C)(C)S[C@H]12 (stereo partly drawn)
Key: Y

Exercise: Next: `Nc1nc(Nc2ccc(S(N)(=O)=O)cc2)nn1C(=S)Nc1c(F)cccc1F`
Key: N

Exercise: Next: `CC1(C)C[C@H]1C(=O)N/C(=C\CCCCSC[C@@H](N)C(=O)O)C(=O)O`
Key: Y
